This collection of values is drawn from PubChem BioAssay (NCI).

A collection of compounds and their measured growth
- System: SK-MEL-2 melanoma
- experimental.protocol: NCI-60 one-dose screen, 48 h (100 = growth as untreated, 0 = no growth, -100 = all killed)
- measurement.context: 10 µM unless noted
The panel holds about 83,000 compounds, 20% with a hit somewhere; the sample as a whole holds those more often.
Give your result in % as a bare value.

Note down growth recorded for `NC(=O)c1cc(I)ccc1NC(=O)/C=C/c1ccccc1Cl` 75.1

Answer with the recorded growth of `O=S(=O)(Nc1ccc(Cl)c(F)c1)c1ccc(-c2cnc(C3CC3)o2)cc1` only. 31.9

Supply reported growth belonging to this compound: `COc1ccc(C(=O)COc2ccc(/C=C3\Oc4ccc(OC)cc4C3=O)cc2)cc1` 86.4

Respond only with growth recorded for `COc1ccc(CN2c3ccccc3Oc3ccccc32)cc1F` 10

Find the measured growth of `O=C(N/N=C/c1c[nH]c2ccccc12)c1cc(-c2ccccc2)on1` and report it. 101

Give a short answer stating reported growth for `CC(C)c1c(C(=O)c2ccccc2)c(-c2ccccc2)c(-c2ccc(F)cc2)n1CC[C@@H](O)C[C@@H](O)CC(=O)O` . 36.2

Give the value of growth reported for the following: `O=C1/C(=C/c2ccccc2)SC(=S)N1CCc1ccc(O)cc1` 101

====

- System: SK-MEL-28 melanoma
- experimental.protocol: NCI-60 one-dose screen, 48 h (100 = growth as untreated, 0 = no growth, -100 = all killed)
- measurement.context: 10 µM unless noted
About 83,000 compounds went through this panel and 20% of them were active in at least one assay; those are over-represented in the sample as a whole. Active and inactive are the calls of the source. Rule for the calls: active = growth percent below 10; inactive = the rest.
test.readout: growth

Known growth results, listed for orientation:
>  <compound>
O=C1/C(=C/C(Cl)=C/c2ccccc2)SC(=S)N1CCc1ccc(O)cc1

>  <growth>
-26% (active)

$$$$
>  <compound>
O=C(/C=C/c1cccc(Cl)c1)c1ccc(O)c(CN2CCN(c3cc4c(cc3F)c(=O)c(C(=O)O)cn4C3CC3)CC2)c1

>  <growth>
58.8% (inactive)

$$$$
>  <compound>
CSc1nc(-c2cccc(NC(=O)CCl)c2)c(C#N)c(=O)n1C

>  <growth>
87.3% (inactive)

$$$$
>  <compound>
O=c1cc(CSc2nnc(SCc3cc(=O)oc4c3ccc3ccccc34)o2)c2ccc3ccccc3c2o1

>  <growth>
109% (inactive)

$$$$
>  <compound>
O=C(CCl)Oc1ccc(-c2ccccc2)c(Br)c1

>  <growth>
107% (inactive)

$$$$
>  <compound>
CC(=O)O[C@H]1CC[C@]2(C)[C@H]3CC=C4[C@@H]5CC(C)(C)CC[C@]5(C(=O)NCCNCCNCCN)CC[C@@]4(C)[C@]3(C)CC[C@H]2C1(C)C

>  <growth>
93.1% (inactive)

$$$$
>  <compound>
O=C(NCCN1CCOCC1)Nc1ccc(-c2cc3c(Nc4ccc(Oc5cccc(C(F)(F)F)c5)c(Cl)c4)ncnc3s2)cc1

>  <growth>
-49.8% (active)

$$$$
>  <compound>
OC(c1cc2cc(Cl)c(Cl)cc2c2cc(C(F)(F)F)ccc12)C1CCCCN1 (stereo not drawn)

>  <growth>
-79.1% (active)

$$$$
>  <compound>
CCCOc1cc2ccccc2cc1C(=O)Nc1nc(N)c2c(ccc3nccc32)[nH]1

>  <growth>
-84.9% (active)

$$$$
>  <compound>
COc1ccc(-n2nc(C)c3c(Nc4ccc(NC(=O)Nc5cccc(C(F)(F)F)c5)cc4)ncnc32)cc1

>  <growth>
11.6% (inactive)

$$$$

Provide SK-MEL-28 melanoma growth reading for COc1ccc(C2CC(c3ccc4ccccc4c3)=NN2/C=C2\SC(=S)N(NC(=O)Cc3ccccc3Nc3c(Cl)cccc3Cl)C2=O)cc1 (stereo not drawn) . 57% (inactive)

Provide growth, tested on SK-MEL-28 melanoma, for `CCCOc1ccc2nc(NC(=O)OC)[nH]c2c1` . 66.5% (inactive)

Write down measured growth (SK-MEL-28 melanoma) for this compound. `COc1cc(/C=C/C(=O)c2ccc(O)c(CN3CCN(c4cc5c(cc4F)c(=O)c(C(=O)O)cn5C4CC4)CC3)c2)cc(OC)c1OC` 59.3% (inactive)

Enter recorded growth with SK-MEL-28 melanoma for O=C1OC(c2ccccc2)C(O)=C1c1ccccc1 (stereo not drawn) here. 120% (inactive)

Report measured growth on SK-MEL-28 melanoma; entry: `COc1cc2c(cc1-c1c(C)noc1C)ncc1nc(C3CCOCC3)n([C@H](C)COC(F)F)c12` 55.8% (inactive)

Provide the reported growth (system: SK-MEL-28 melanoma) for `CCOC(=O)c1c(CN2CCN(C)CC2)nc2ccc(Cl)cc2c1-c1ccccc1` -22.6% (active)

====

Listed here: items and their measured growth.
- System: NCI-H322M lung
- experimental.protocol: NCI-60 one-dose screen, 48 h (100 = growth as untreated, 0 = no growth, -100 = all killed)
- measurement.context: 10 µM unless noted
Compounds without any hit were thinned out: in the full panel of roughly 83,000, 20% have a hit.
Just the number please, in %, no unit attached.

>  <mol.smiles>
O=C1c2cc3c(cc2-c2c1c1ccc(Cl)cc1c(=O)n2CCCN1CCOCC1)OCO3

>  <reported.measurement>
89.6

$$$$

Answer with the recorded growth for the compound listed here: `O=C(/C=C/c1cc(CN2CCOCC2)c(O)c2ncccc12)c1cc(CN2CCOCC2)c(O)c2ncccc12` 45.5

Give the measured growth for `COc1cc(Nc2cc(C)nc(N3CCN(c4ccnc5cc(Cl)ccc45)CC3)n2)cc(OC)c1` 8.83

Read the entry `Nc1ccn(-c2ccc(Br)cc2)c(=O)n1` and write its reported growth. 120

====

- Tested on: M14 melanoma
- experimental.protocol: NCI-60 one-dose screen, 48 h (100 = growth as untreated, 0 = no growth, -100 = all killed)
- measurement.context: 10 µM unless noted
This is part of a sample that, as a whole, favours compounds with a hit. Of some 83,000 tested, about 20% had one in any assay.
The threshold is inclusive: growth of exactly 20% counts as Condition met; values below receive Condition not met.

>  <compound>
Cc1cc(N2CCSCC2)nc(NC2CCCC(Nc3ccnc4cc(Cl)ccc34)C2)n1 (stereo not given)

>  <tgt>
M14 melanoma

>  <classification>
Condition not met

$$$$
>  <compound>
COc1cc2c(cc1OC)C(Sc1ccc(SC)cc1)c1c(nc(N)c(C#N)c1N)O2 (stereo not given)

>  <tgt>
M14 melanoma

>  <classification>
Condition not met

$$$$
>  <compound>
CNC(=O)c1cc(Oc2ccc(NC(=O)Nc3ccc(Cl)c(OC(F)(F)F)c3)c(F)c2)ccn1

>  <tgt>
M14 melanoma

>  <classification>
Condition not met

$$$$
>  <compound>
C=CCSSC1N=CNc2nc[nH]c21 (stereo not given)

>  <tgt>
M14 melanoma

>  <classification>
Condition not met

$$$$
>  <compound>
Cn1ncc2c(=O)nc3c(-c4ccccc4)n[nH]n3c21

>  <tgt>
M14 melanoma

>  <classification>
Condition met

$$$$

Say whether `Cc1cc(NS(=O)(=O)c2ccc(-c3cnc(C4CC4)o3)cc2)ccc1Cl` shows growth of 20% or more. Condition not met

State whether the measured growth reaches 20%, counting equality as reaching it, for `COCCNc1ccc2c3c(cccc13)C(=O)N(CCN(C)C)C2=O` Condition met

In plain terms: is recorded growth at least 20% for `COc1cccc(-c2nn(C(C)(C)C)cc2-c2ccnc(NCCCNS(=O)(=O)c3cccc4ccccc34)c2)c1` ? Condition met

In plain terms: is recorded growth at least 20% for `COc1ccc(C(=O)c2sc3nc(C)cc(C)c3c2N)cc1OC` ? Condition met

====

- Tested on: SF-268 CNS
- experimental.protocol: NCI-60 one-dose screen, 48 h
- measurement.context: 10 µM unless noted
About 83,000 compounds went through this panel and 20% of them were active in at least one assay; those are over-represented in the sample as a whole. Activity calls are given as the source filed them. The calls were made as follows: active = growth percent below 10; inactive = the rest.
Form entry, call: pick from T (active), F (inactive)

Below, 10 molecules whose answers are already recorded.
>  <molecule>
CCCCCC(=O)Oc1ccc(/C(=C(\C)c2ccc(OC)cc2)c2ccc(OCCN3CCCCC3)cc2)cc1

>  <classification>
F

$$$$
>  <molecule>
CSc1nc(Nc2cccc(NC(=O)/C(C#N)=C/c3c(Cl)cccc3Cl)c2)c(C#N)c(-c2cccc([N+](=O)[O-])c2)n1

>  <classification>
F

$$$$
>  <molecule>
CCn1c(O)c(/C=N/NC(=O)C(C)c2ccc(CC(C)C)cc2)sc1=S (configuration not stated)

>  <classification>
F

$$$$
>  <molecule>
O=C1Nc2ccc(Br)cc2C12Oc1ccccc1C1CC(c3ccc(F)cc3)=NN12 (configuration not stated)

>  <classification>
F

$$$$
>  <molecule>
CC(C)C1=C[C@@]23CC[C@@H]4[C@](C)(CCC[C@@]4(C)C(=O)N4CCCNCC4)[C@H]2C[C@@H]1[C@H]1C(=O)CCC(=O)[C@H]13

>  <classification>
F

$$$$
>  <molecule>
CCCOc1cc2ccccc2cc1C(=O)Nc1nc(NC)c2c(ccc3nccc32)[nH]1

>  <classification>
T

$$$$
>  <molecule>
COc1ccc(/C=N/C2=C(C#N)C(c3ccc(N(C)C)cc3)c3ccc4ccccc4c3O2)cc1 (configuration not stated)

>  <classification>
F

$$$$
>  <molecule>
O=C(/C=C/c1cccc([N+](=O)[O-])c1)c1ccc(O)c(CN2CCN(c3cc4c(cc3F)c(=O)c(C(=O)O)cn4C3CC3)CC2)c1

>  <classification>
F

$$$$
>  <molecule>
CCOC(=O)n1cc(-c2nonc2-c2cn(C)c3ncccc23)c2ccccc21

>  <classification>
F

$$$$
>  <molecule>
O=C(Nc1cccc2[nH]c(C(F)(F)F)nc12)c1ccc(-n2cnnn2)cc1

>  <classification>
F

$$$$

Answer briefly: the call reported for `CC1=C[C@H]2c3c(c(O)c(O)c4oc5cc(O)ccc5c(=O)c34)[C@H](c3cc(O)c(O)c4oc5cc(O)ccc5c(=O)c34)[C@H]2C(C)(C)C1` in this assay. F

Hi, sorry to bother you, what did the test record for `CCCCC/C(C=C(C#N)C#N)=C/c1ccccc1` ? F
